- SUBJECT OF TEST: Chk-1 kinase (Homo sapiens (Human))
- TEST DESCRIPTION: Chk-1 Kinase Inhibiting Activity (33P-ATP filter assay, CHKtide substrate)
- Assay type: biochemical
- CONDITIONS USED: against Chk-1 kinase; read-out: IC50
pIC50: −log10 of the molar value.
QUANTITY: pIC50

COc1cc(C2CCCN(C)C2)ccc1-c1cc(Nc2cnc(C#N)cn2)n[nH]1 (stereo not drawn) [Example 40]    9.85

I: COc1cc(O[C@H]2CCN(C(C)C)C2)ccc1-c1cc(Nc2cnc(C#N)cn2)n[nH]1 [Example 94]
II: COc1cc(N(C)CC2CCN(C(C)C)CC2)ccc1-c1cc(Nc2cnc(C#N)cn2)n[nH]1 [Example 148]
III: COc1cc(C2CCN(C)CC2)ccc1-c1cc(Nc2cnc(C)cn2)n[nH]1 [Example 26]
IV: COc1cc(C2CCN(C)CC2)ccc1-c1cc(Nc2cnc(Cl)cn2)n[nH]1 [Example 44]
V: COc1cc(CNC2CC2)ccc1-c1cc(Nc2cnc(C#N)cn2)n[nH]1 [Example 91]
Query: Would you mind ranking these molecules by ascending pIC50? Labels, requested order.
Reply: III, IV, V, I, II

* * *

- SUBJECT OF TEST: Chk-1 kinase (Homo sapiens (Human), UniProt O14757)
- Sequence (O14757 whole entry): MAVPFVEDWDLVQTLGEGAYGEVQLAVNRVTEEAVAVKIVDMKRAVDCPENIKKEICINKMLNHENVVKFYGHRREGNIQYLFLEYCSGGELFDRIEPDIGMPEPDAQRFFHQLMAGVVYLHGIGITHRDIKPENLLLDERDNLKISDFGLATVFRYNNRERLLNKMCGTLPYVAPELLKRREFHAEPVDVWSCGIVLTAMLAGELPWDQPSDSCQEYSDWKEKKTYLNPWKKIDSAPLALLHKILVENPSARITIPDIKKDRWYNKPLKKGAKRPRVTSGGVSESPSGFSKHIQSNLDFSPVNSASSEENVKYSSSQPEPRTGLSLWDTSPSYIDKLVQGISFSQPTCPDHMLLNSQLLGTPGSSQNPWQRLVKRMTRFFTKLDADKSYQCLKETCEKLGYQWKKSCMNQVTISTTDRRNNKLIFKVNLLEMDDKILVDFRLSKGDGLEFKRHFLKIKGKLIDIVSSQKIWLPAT
- TEST DESCRIPTION: Chk-1 Kinase Inhibiting Activity (33P-ATP filter assay, CHKtide substrate)
- Format: biochemical
- CONDITIONS USED: against Chk-1 kinase; read-out: IC50
pIC50: −log10 of the molar value. Where a name gives a salt, the structure may show the parent alone.
QUANTITY: pIC50

// known answers, use as guide
COc1cc(C2CCN(C)CC2)ccc1-c1cc(Nc2cnc(C#N)cn2)n[nH]1 [Example 11, hydrochloride]    10.32
COc1cc(NC2CCN(C)CC2)ccc1-c1cc(Nc2cnc(C#N)cn2)n[nH]1    11.16
COc1cc(NCCN2CCOCC2)ccc1-c1cc(Nc2cnc(C#N)cn2)n[nH]1    10.07
COc1cc(C2CCN(CC(N)=O)CC2)ccc1-c1cc(Nc2cnc(C#N)cn2)n[nH]1    10.08
COc1cc(OC2CCNCC2)ccc1-c1cc(Nc2cnc(C#N)cn2)n[nH]1    10.15

a: COc1cc(CNC2CCN(C)CC2)ccc1-c1cc(Nc2cnc(C#N)cn2)n[nH]1
b: COc1cc(CN(C)C2CCOCC2)ccc1-c1cc(Nc2cnc(C#N)cn2)n[nH]1
Query: Kindly identify which of a and b has the larger recorded pIC50 value. Answer with the label corresponding to your selection.
Reply: b
(b: 10.28, a: 9.96)

* * *

In this section, each of the compounds is paired with its reported 2xLS.
- Test system: MIA PaCa-2 cells
- TEST DESCRIPTION: Gemcitabine Combination Cell Assay (Cell Titer Glo)
- Type: cell-based
- CONDITIONS USED: approximate concentration of Chk1 inhibitor that results in a two-fold reduction in the IC50 of gemcitabine alone, MIA PaCa-2 cells, 72 h
Structures can show the parent of a compound that is named as a salt.
Quick reminder: number only, in nM, skip the unit.

COc1cc(CN2CC[C@@H](F)C2)ccc1-c1cc(Nc2cnc(C#N)cn2)n[nH]1 [Example 123, hydrochloride]    3
COc1cc(C2CCN(C)CC2)ccc1-c1cc(Nc2cnc(Cl)cn2)n[nH]1    100
COc1cc(CN2CCCC2)ccc1-c1cc(Nc2cnc(C#N)cn2)n[nH]1    3
COc1cc(C2CCN(C(C)C)CC2)ccc1-c1cc(Nc2cnc(C#N)cn2)n[nH]1    2

Query: With MIA PaCa-2 cells as the test system, provide measured 2xLS for this compound: `COc1cc(CN[C@@H](C)c2ccc(F)cc2)ccc1-c1cc(Nc2cnc(C#N)cn2)n[nH]1`
Reply: 30
